Target: T1, Rap1b (G12V), loaded with GMP-PNP (active form) (human, UniProt P61224 1-184, G12V)
T1 construct: Rap1b, human, with G12V; Loaded with the GTP analog GMP-PNP; Made by mutagenesis; Probably full length; also called active Rap1b; GMP-PNP loaded Rap1b
T1 sequence (looked up): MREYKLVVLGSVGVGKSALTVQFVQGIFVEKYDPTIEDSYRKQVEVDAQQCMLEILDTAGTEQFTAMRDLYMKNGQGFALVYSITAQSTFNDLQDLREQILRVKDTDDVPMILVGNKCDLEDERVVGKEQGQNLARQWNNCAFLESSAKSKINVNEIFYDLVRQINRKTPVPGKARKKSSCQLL
Experiment: NMR titration; HSQC titration of 45 μM 15N-labeled talin-F0 with increasing GMP-PNP-loaded Rap1b (G12V); average Kd of four residues
Details: both partners purified
Measurement Label: Kd

**Q:** Input mouse talin-F0 (1–86) (domain or fragment, UniProt P26039 1-86, looked up, talin (talin-1), mouse, F0 domain, residues 1-86; Isotope labelled or unlabelled as the NMR sample needed; also called F0 domain of talin) MVALSLKISIGNVVKTMQFEPSTMVYDACRMIRERIPEALAGPPNDFGLFLSDDDPKKGIWLEAGKALDYYMLRNGDTMEYRKKQR , output reported Kd.
**A:** ~162 µM
